Assayed System: AgNbp2
Test Summary: SPOT peptide array binding signal intensity (averaged, normalized) (arbitrary units (background-subtracted, floor 0; scale differs between SH3 domains)); higher = stronger binding of the SH3 domain to the peptide
Measured Quantity: SPOT peptide array binding signal intensity
Output spec: single numeric token, no unit.

RRRIAYPFYPFKKLG
124

Given SKAKRPKFLLDLQIK , state its recorded SPOT peptide array binding signal intensity.
11

Given GATNNAPTLPKRKNP , state its recorded SPOT peptide array binding signal intensity.
7.25

Given RRARRQMGIPTISQV , state its recorded SPOT peptide array binding signal intensity.
724

Given PLQSKIPMLPSRRTM , state its recorded SPOT peptide array binding signal intensity.
302

Given VRVKKRPLIRPLNSS , state its recorded SPOT peptide array binding signal intensity.
220

Given MKRSRPSRSIPYTTP , state its recorded SPOT peptide array binding signal intensity.
324

Given NMLSRPRLAKLPSIR , state its recorded SPOT peptide array binding signal intensity.
362
